Data provenance: patent US10047051B2

# System name: CFTR G551D mutant (Homo sapiens, UniProt P13569, G551D)
# Sequence (P13569 whole entry G551D): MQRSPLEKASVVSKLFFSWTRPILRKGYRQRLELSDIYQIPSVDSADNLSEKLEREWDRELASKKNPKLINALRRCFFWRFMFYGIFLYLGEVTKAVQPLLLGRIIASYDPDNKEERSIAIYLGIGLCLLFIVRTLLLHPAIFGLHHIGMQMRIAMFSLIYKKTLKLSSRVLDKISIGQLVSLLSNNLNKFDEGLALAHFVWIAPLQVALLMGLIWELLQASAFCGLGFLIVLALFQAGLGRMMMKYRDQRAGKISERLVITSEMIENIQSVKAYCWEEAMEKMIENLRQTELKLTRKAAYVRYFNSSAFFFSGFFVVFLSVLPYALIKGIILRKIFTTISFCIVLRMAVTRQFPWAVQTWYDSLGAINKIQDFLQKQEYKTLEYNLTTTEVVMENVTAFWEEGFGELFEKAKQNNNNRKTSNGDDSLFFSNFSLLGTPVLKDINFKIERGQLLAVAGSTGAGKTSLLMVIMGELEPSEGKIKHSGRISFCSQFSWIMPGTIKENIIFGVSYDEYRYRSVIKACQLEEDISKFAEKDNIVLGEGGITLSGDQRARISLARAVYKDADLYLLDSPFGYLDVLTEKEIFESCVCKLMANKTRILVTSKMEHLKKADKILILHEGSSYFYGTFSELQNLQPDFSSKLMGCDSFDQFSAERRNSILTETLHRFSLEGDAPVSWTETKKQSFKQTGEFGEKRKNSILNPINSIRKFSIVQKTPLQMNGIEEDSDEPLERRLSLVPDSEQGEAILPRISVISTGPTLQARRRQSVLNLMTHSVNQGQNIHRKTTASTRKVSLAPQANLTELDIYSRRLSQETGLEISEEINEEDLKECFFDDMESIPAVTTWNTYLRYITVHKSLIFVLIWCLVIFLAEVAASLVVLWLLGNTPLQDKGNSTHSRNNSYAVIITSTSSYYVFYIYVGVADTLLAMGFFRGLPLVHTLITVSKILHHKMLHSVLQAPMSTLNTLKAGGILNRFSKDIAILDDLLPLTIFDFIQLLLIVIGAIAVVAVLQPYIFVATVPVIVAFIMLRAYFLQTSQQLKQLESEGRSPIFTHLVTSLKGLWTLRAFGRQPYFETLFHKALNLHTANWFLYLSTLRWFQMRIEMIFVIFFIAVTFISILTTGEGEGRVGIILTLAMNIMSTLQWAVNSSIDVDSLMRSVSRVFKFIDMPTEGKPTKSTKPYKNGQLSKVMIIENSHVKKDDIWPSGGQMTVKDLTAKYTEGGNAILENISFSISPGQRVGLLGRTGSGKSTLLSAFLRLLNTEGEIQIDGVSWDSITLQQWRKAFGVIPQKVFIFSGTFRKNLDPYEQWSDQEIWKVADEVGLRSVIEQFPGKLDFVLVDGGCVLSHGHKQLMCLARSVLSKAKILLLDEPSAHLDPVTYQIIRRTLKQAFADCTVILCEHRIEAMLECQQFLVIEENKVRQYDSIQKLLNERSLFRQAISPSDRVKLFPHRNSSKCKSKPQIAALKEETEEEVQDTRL
# Protocol summary: YFP-halide influx assay for the CFTR-G551D mutation (HEK293 cells)
# Condition details: forskolin 10.67 μM
Assay endpoint: pEC50
Keep in mind that pEC50 stands for -log10 of concentration in molar terms.

CC1(C)CN(C(=O)c2ncc(S(=O)(=O)c3ccc(OC(F)(F)F)cc3F)cc2N)C1 = 5.95

Give pEC50 for this entry on CFTR G551D mutant (Homo sapiens, UniProt P13569, G551D): `Nc1cc(S(=O)(=O)c2ccccc2OC(F)(F)F)cnc1C(=O)NCCO`
5.82

# return pEC50 for `COCCCNC(=O)c1ncc(S(=O)(=O)c2ccc(C(F)(F)F)cc2)cc1N` , test system: CFTR G551D mutant (Homo sapiens, UniProt P13569, G551D)
6.09

----------
# System name: CFTR ΔF508 mutant (Homo sapiens, UniProt P13569, DEL508-508)
# Sequence (P13569 with tags, fused parts or gaps DEL508-508): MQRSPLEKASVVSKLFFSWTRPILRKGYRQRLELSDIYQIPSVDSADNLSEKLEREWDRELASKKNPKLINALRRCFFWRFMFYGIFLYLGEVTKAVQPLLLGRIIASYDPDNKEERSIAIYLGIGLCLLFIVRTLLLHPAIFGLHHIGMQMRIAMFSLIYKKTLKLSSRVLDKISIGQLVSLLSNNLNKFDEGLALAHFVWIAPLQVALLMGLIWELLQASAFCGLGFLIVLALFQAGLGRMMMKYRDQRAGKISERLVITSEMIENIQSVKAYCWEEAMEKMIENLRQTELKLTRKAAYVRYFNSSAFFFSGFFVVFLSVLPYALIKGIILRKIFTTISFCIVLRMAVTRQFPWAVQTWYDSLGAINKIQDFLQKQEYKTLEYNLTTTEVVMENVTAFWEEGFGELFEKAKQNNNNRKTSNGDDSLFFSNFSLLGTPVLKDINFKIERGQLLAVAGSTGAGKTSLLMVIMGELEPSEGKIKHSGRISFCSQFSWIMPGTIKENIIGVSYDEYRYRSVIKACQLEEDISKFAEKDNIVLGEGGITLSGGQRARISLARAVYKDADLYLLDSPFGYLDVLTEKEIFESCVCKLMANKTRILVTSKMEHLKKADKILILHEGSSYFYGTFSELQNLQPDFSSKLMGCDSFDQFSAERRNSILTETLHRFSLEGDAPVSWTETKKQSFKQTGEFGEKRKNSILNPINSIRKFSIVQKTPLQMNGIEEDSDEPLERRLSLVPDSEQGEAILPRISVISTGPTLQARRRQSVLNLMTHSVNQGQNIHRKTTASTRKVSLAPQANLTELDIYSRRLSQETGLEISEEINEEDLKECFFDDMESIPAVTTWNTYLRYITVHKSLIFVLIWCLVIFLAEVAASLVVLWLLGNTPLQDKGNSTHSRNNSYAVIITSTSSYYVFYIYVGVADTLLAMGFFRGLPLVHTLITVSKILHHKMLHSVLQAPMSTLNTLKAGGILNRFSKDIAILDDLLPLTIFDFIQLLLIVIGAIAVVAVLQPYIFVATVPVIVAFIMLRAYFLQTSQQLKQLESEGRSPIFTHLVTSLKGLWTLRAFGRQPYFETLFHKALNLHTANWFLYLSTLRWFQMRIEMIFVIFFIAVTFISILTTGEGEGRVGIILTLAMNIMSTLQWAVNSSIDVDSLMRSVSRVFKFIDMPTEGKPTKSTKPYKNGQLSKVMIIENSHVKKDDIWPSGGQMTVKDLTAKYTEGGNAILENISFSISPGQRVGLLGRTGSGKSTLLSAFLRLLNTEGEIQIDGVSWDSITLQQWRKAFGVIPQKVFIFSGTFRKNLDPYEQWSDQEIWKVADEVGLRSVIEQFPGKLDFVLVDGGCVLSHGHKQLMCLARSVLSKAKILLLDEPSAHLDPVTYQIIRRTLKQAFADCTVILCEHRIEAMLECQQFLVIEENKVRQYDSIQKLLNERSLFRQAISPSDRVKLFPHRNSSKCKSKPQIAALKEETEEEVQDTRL
# Protocol summary: YFP-halide influx assay for the CFTR-ΔF508 mutation (CFBE41o- cells)
# Condition details: forskolin 10.67 μM, from (1−F/F0) vs concentration plot
Quick list: pEC50 per entry.
Reminder that pEC50 means the negative base-10 logarithm of the concentration expressed in mol/L.

Nc1cc(S(=O)(=O)c2ccc(F)cc2)cnc1C(=O)NC[C@@H](O)C(F)(F)F = 8.07
CC(C)(O)CNC(=O)c1ncc(S(=O)(=O)c2ccc(F)cc2)cc1N = 6.83
Nc1cc(S(=O)(=O)c2ccccc2OC(F)(F)F)cnc1C(=O)N1CC(O)(C(F)(F)F)C1 = 9.00
Nc1cc(S(=O)(=O)c2cccc(OC(F)(F)F)c2)cnc1C(=O)NCC(O)C(F)(F)F (stereo not drawn) = 8.44
CO[C@H]1C[C@H](NC(=O)c2ncc(S(=O)(=O)c3ccc(OC(F)(F)F)cc3)cc2N)C1 = 7.11
CC1(O)CN(C(=O)c2ncc(S(=O)(=O)c3ccc(C(F)(F)F)cc3)cc2N)C1 = 7.94
Nc1cc(S(=O)(=O)c2ccccc2OC(F)(F)F)cnc1C(=O)NC[C@@H](O)C(F)(F)F = 9.30
COC[C@H](O)CNC(=O)c1ncc(S(=O)(=O)c2ccccc2OC(F)(F)F)cc1N = 8.44

Specify pEC50 for `Nc1cc(S(=O)(=O)c2ccc(OC(F)(F)F)cc2)cnc1C(=O)NC1CCOCC1` and stop.
7.04

Answer with reported pEC50 of `Nc1cc(S(=O)(=O)c2ccc(OC(F)(F)F)cc2)cnc1C(=O)N[C@@H]1CCOc2ccccc21`
6.69

Provide pEC50 value for the following compound: `Nc1cc(S(=O)(=O)c2ccc(C(F)(F)F)cc2F)cnc1C(=O)NC[C@@H]1CCOC1`
7.72

----------
# System name: CFTR G551D mutant (Homo sapiens, UniProt P13569, G551D)
# Construct: expressed in transfected cells; host or cells: HEK293 cells, reverse transfection with plasmids
# Protocol summary: YFP-halide influx assay for the CFTR-G551D mutation (HEK293 cells)
# Format: cell-based
# Condition details: forskolin 10.67 μM
Assay endpoint: % Activation (%)
Respond numerically; units are % and should not be typed.

Consider the worked cases shown below.
Nc1cc(S(=O)(=O)c2ccc(OC(F)(F)F)cc2)cnc1C(=O)N[C@@H]1CCOC1 [Compound 128] = 41.7
CCOCC(O)CNC(=O)c1ncc(S(=O)(=O)c2ccc(OC(F)(F)F)cc2)cc1N (stereo not shown) [Compound 88] = 82.0
Nc1cc(S(=O)(=O)c2ccc(F)cc2)cnc1C(=O)N1CC(O)(C(F)(F)F)C1 [Compound 176] = 46.0

Give recorded % Activation. Nc1cc(S(=O)(=O)c2ccc(OC(F)(F)F)cc2)cnc1C(=O)NCC1COCCO1 (stereo not shown) [Compound 8]
67.5

----------
Listing of entries alongside the reported % Activation.
# System name: CFTR ΔF508 mutant (Homo sapiens, UniProt P13569, DEL508-508)
# Construct: expressed in transfected cells; host or cells: CFBE41o- cells, adenoviral transduction
# Protocol summary: YFP-halide influx assay for the CFTR-ΔF508 mutation (CFBE41o- cells)
# Assay type: cell-based
# Condition details: forskolin 10.67 μM
Value expressed in %; do not type the unit.

Nc1cc(S(=O)(=O)N2CCC(F)(F)C2)cnc1C(=O)NCC(O)C(F)(F)F (centres unmarked) [Compound 186] = 108.2
Nc1cc(S(=O)(=O)c2ccc(OC(F)(F)F)cc2)cnc1C(=O)NC1COC2(CCCCC2)C1 (centres unmarked) [Compound 149] = 91.2
CN(C1CC1)S(=O)(=O)c1cnc(C(=O)NCC(O)C(F)(F)F)c(N)c1 (centres unmarked) [Compound 94] = 102.0
Nc1cc(S(=O)(=O)c2ccc(OC(F)(F)F)cc2F)cnc1C(=O)NC[C@@H]1CCOC1 [Compound 116] = 101.1

Next compound, % Activation to be filled in.
Determine from records and report % Activation for COCC(O)CNC(=O)c1ncc(S(=O)(=O)c2ccccc2OC(F)(F)F)cc1N (centres unmarked) [Compound 80]
102.0

----------
Measured pEC50 by item
# System name: CFTR ΔF508 mutant (Homo sapiens, UniProt P13569, DEL508-508)
# Construct: expressed in transfected cells; host or cells: CFBE41o- cells, adenoviral transduction
# Protocol summary: YFP-halide influx assay for the CFTR-ΔF508 mutation (CFBE41o- cells)
# Type: cell-based
# Condition details: forskolin 10.67 μM, from (1−F/F0) vs concentration plot
To interpret pEC50, take it as minus log10 of a concentration measured in moles per litre.

Answered examples (3):
Nc1cc(S(=O)(=O)c2ccc(OC(F)(F)F)cc2)cnc1C(=O)NCC1CCCOC1 (stereo not shown) [Compound 143] = 6.87
CC(C)S(=O)(=O)c1cc(N)c(C(=O)NC[C@H](C)O)nc1-c1ccc(F)cc1 [Compound 264] = 6.67
Nc1cc(S(=O)(=O)c2ccccc2)cnc1C(=O)NC[C@@H](O)C(F)(F)F [Compound 253] = 8.22

Give measured pEC50 for Nc1cc(S(=O)(=O)c2ccc(C(F)(F)F)cc2)cnc1C(=O)NCC1CC1 [Compound 223] (CFTR ΔF508 mutant (Homo sapiens, UniProt P13569, DEL508-508)).
7.31

Write down the reported pEC50 (system: CFTR ΔF508 mutant (Homo sapiens, UniProt P13569, DEL508-508)) of Nc1cc(S(=O)(=O)N2CC[C@H](F)C2)cnc1C(=O)NCC(O)C(F)(F)F (stereo partly shown) [Compound 180]
6.97

Check CFTR ΔF508 mutant (Homo sapiens, UniProt P13569, DEL508-508) data and give pEC50 for Nc1cc(S(=O)(=O)c2ccc(OC(F)(F)F)cc2F)cnc1C(=O)N1CC(O)C1 [Compound 77] .
7.82

Answer briefly: pEC50 recorded on CFTR ΔF508 mutant (Homo sapiens, UniProt P13569, DEL508-508) for CC(O)(CNC(=O)c1ncc(S(=O)(=O)c2ccc(F)cc2)cc1N)C(F)(F)F (stereo not shown) [Compound 19]
7.79

State pEC50 on CFTR ΔF508 mutant (Homo sapiens, UniProt P13569, DEL508-508). Entry: CN(Cc1ccc(C(F)(F)F)cc1)S(=O)(=O)c1cnc(C(=O)NCC(O)C(F)(F)F)c(N)c1 (stereo not shown) [Compound 211]
7.61

Give CFTR ΔF508 mutant (Homo sapiens, UniProt P13569, DEL508-508) pEC50 for the following compound: Nc1cc(S(=O)(=O)c2ccc(C(F)(F)F)cc2)cnc1C(=O)N[C@@H]1CCC[C@@H]1O [Compound 205]
7.22

----------
# System name: CFTR G551D mutant (Homo sapiens, UniProt P13569, G551D)
# Protocol summary: YFP-halide influx assay for the CFTR-G551D mutation (HEK293 cells)
# Condition details: forskolin 10.67 μM
# Procedure: The YFP halide influx assay measured the functionality of the cystic fibrosis Transmembrane Conductance regulator (CFTR) channels. The assay was used to evaluate the capacity of compounds to increase the channel opening of existing mutant CFTR channels in the membrane. […] The I^−-induced quenching of fluorescence was recorded immediately after injection of I^− for 7 seconds. […]
Assay endpoint: EC50 (nM)
// return numeric value only (unit: nM, not printed)

Answered examples (4):
CN(C1CC1)S(=O)(=O)c1cnc(C(=O)NCC(O)C(F)(F)F)c(N)c1 (stereo not drawn) = 1140
CC1(F)CN(C(=O)c2ncc(S(=O)(=O)c3ccc(C(F)(F)F)cc3)cc2N)C1 = 967
COCCC(C)(O)CNC(=O)c1ncc(S(=O)(=O)c2ccc(C(F)(F)F)cc2F)cc1N (stereo not drawn) = 2300
Nc1cc(S(=O)(=O)c2ccc(OC(F)(F)F)cc2)cnc1C(=O)N1CCC1 = 1160

Shifting focus to the compound that follows.
For the compound `Nc1cc(S(=O)(=O)c2ccc(OC(F)(F)F)cc2F)cnc1C(=O)N1CC(O)(C(F)(F)F)C1` , give its measured EC50 value.
181
